Reported pIC50 values are given for each entry in this list.
Target: human androgen receptor (Homo sapiens)
Construct: expressed in transfected cells; host or cells: HeLa cells
Sequence (P10275 1-920): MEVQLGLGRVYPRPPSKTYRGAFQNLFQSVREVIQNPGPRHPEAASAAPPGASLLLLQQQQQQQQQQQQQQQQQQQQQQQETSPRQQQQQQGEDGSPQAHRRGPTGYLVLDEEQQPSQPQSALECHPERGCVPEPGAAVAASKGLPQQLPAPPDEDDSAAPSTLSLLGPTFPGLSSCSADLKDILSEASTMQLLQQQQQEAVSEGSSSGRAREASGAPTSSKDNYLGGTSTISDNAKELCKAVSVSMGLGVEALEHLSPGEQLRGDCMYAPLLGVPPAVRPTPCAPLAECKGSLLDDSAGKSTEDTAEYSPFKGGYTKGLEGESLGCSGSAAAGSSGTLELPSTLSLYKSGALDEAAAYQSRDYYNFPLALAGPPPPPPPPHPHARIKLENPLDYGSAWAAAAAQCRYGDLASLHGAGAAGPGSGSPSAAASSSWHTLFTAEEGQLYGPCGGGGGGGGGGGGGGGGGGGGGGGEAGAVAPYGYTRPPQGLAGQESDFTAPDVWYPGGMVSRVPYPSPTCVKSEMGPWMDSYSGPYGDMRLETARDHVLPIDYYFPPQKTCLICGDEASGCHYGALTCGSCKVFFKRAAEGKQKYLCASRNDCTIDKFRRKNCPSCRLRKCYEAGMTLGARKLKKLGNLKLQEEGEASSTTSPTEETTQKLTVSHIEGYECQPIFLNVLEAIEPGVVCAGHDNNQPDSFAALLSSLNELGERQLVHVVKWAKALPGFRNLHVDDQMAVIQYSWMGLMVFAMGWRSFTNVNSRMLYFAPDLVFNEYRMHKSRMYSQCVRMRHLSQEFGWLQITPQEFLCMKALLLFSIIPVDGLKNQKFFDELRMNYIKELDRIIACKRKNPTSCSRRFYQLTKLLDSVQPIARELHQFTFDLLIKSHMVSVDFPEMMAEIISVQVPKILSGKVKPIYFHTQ
Assay: Androgen receptor reporter gene assay, antagonistic effects (Example 26)
Assay type: cell-based
Settings: 50% inhibition of transcriptional activity induced by DHT (0.1 nmol/L); HeLa cells transfected with MMTV-Luc and pSG5-hAR; 48 h; read-out: IC50 value
Method: Twenty-four hours before transfection, 1.0×10^5 HeLa cells are cultured in a 12-well microplate containing phenol red-free DMEM/5% DCC-FBS. […] Forty-eight hours after replacement of the medium, the transcriptional activity is determined by a Dual-Luciferase Reporter Assay System according to the following equation: (transcriptional activity)=(firefly luciferase activity)/(Renilla luciferase activity). […]
pIC50: −log10 of the molar value.
property name: pIC50

[
  {
    "molecule": "CC12CCC(=O)C=C1CC(CCCc1cccc(CCCCC(=O)O)c1)C1C2CCC2(C)C1CCC2(C)O (centres unmarked)",
    "endpoint value": 5.39
  },
  {
    "molecule": "C[C@]12CCC(=O)C=C1C[C@@H](CCCCc1cccc(OCCCCC(=O)O)c1)[C@@H]1[C@@H]2CC[C@@]2(C)[C@H]1CC[C@]2(C)O",
    "endpoint value": 6.48
  },
  {
    "molecule": "CC12CCC(=O)C=C1CC(CCCCc1cccc(OCCCCCC(=O)O)c1)C1C2CCC2(C)C1CCC2(C)O (centres unmarked)",
    "endpoint value": 6.28
  },
  {
    "molecule": "CC12CCC(=O)C=C1CC(CCCCCc1ccc(OCC(=O)O)cc1)C1C2CCC2(C)C1CCC2(C)O (centres unmarked)",
    "endpoint value": 5.29
  },
  {
    "molecule": "CC12CCC(=O)C=C1CC(CCCc1cccc(OCCCC(=O)O)c1)C1C2CCC2(C)C1CCC2(C)O (centres unmarked)",
    "endpoint value": 6.09
  }
]

Reference for the values: patent US20050009797A1
